Each recorded value in this set is attributed to patent US20190233493A1.

# target.of.assay: T1, RXFP1 receptor (UniProt Q9HBX9 1-757, limits assumed)
# T1 sequence (looked up): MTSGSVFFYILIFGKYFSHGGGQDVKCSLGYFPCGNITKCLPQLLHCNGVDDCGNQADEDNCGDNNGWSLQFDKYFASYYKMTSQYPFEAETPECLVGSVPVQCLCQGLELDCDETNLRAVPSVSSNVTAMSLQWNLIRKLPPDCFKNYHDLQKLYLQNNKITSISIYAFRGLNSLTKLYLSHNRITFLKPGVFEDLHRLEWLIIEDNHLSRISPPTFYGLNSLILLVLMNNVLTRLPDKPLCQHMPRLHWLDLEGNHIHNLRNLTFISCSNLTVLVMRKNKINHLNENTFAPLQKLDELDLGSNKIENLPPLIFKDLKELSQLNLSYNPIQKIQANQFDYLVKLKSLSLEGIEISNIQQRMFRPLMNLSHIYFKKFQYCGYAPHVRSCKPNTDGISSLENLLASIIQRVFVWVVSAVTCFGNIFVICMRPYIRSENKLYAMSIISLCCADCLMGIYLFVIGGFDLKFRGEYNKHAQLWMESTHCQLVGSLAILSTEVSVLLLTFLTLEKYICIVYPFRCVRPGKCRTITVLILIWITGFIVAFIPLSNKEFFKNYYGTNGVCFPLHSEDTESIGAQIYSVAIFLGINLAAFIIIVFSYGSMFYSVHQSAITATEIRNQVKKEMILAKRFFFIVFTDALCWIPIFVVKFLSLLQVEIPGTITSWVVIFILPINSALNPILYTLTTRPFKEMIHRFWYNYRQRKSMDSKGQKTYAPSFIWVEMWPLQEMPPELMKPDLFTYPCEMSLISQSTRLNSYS
# test.method.notes: cell-based or functional assay
*1 amine or outer side, *2 acyl side, *3 side chain or, on linkers, in order; H or OH if unused. Primed or numbered codes have the meaning given here. Side-chain parts run from the residue outwards. [ ]: non-standard residue; d: D form. The star is where a group is joined. γGlu = O=C(O)[C@H](CCC(=O)[*:2])N[*:1]; 1Nal = N[C@@H](Cc1cccc2ccccc12)C(=O)O; Pentadecanoyl = CCCCCCCCCCCCCCC(=O)*; Stearoyl = CCCCCCCCCCCCCCCCCC(=O)*; αMeK = C[C@](N)(CCCCN)C(=O)O; Nle = CCCC[C@H](N)C(=O)O; PEG2′ = PEG2 spacer unit; PEG2″ = not defined here; Aib = CC(C)(N)C(=O)O
assay.endpoint: EMax, OVCAR 5 cells (cAMP) (%)

# binder, readout.units, EMax, OVCAR 5 cells (cAMP)
data = [
    ("Ac-LEGREKVRAK(Ac)I[Aib][Aib]EG[Nle]STWS[Aib]RKK(Ac)K([PEG2′-PEG2′-PEG2′-γGlu-γGlu-γGlu-Pentadecanoyl])-NH2 [peptide of SEQ ID NO: 163]", "%", 87),
    ("Ac-LEGREKVRAK(Ac)I[Aib][Aib]EG[Nle]STFSXRAK(Ac)[PEG2′][PEG2′][PEG2′][PEG2′][γGlu][γGlu]K([γGlu-γGlu-Pentadecanoyl])-NH2 (not fully specified (some residues); printed as Ac-L-E-G-R-E-K-V-R-A-K(Ac)-I-Aib-Aib-E-G-Nle-S-T-F-S-Mly-R-A-K(Ac)-PEG2-PEG2-PEG2-PEG2-gE-gE-K(gE-gE-Penta)-NH2) [peptide of SEQ ID NO: 168]", "%", 91),
    ("Ac-LEGREKVRAK(Ac)I[Aib][Aib]EG[Nle]STYS[Aib]RKK(Ac)K([PEG2″-PEG2″-PEG2″-γGlu-γGlu-γGlu-Stearoyl])-NH2 [peptide of SEQ ID NO: 78]", "%", 73),
    ("Ac-LEGREKVRAQI[Aib][Aib]EG[Nle]STWS[Aib]RKKK([PEG2′-PEG2′-γGlu-Stearoyl])-NH2 [peptide of SEQ ID NO: 56]", "%", 95),
    ("Ac-LEGREKVR[Aib]K(Ac)I[Aib][Aib]EG[Nle]ST[1Nal]S[Aib]RKK([PEG2′-PEG2′-PEG2′-γGlu-γGlu-γGlu-Stearoyl])-NH2 [peptide of SEQ ID NO: 80]", "%", 68),
    ("Ac-LEGREKVRAK(Ac)I[Aib][Aib]EGQSTFS[αMeK]RAK(Ac)[PEG2′][PEG2′][PEG2′][PEG2′][γGlu][γGlu]K([γGlu-γGlu-Pentadecanoyl])-NH2 [peptide of SEQ ID NO: 186]", "%", 100),
    ("Ac-LEGREKVRAQI[Aib][Aib]EGESTWS[Aib]RKKK([PEG2″-PEG2″-γGlu-γGlu-γGlu-Stearoyl])-NH2 [peptide of SEQ ID NO: 68]", "%", 94),
    ("Ac-LEGREKVRAK(Ac)I[Aib][Aib]EG[Nle]STWS[Aib]RKK(Ac)K([PEG2′-PEG2′-PEG2′-γGlu-γGlu-γGlu-Stearoyl])-NH2 [peptide of SEQ ID NO: 81]", "%", 84),
]
